Molecular target: hA2BAR (Homo sapiens, UniProt P29275)
Construct: host or cells: HEK-293 (HEK-293-A2B) cell membranes
Sequence (P29275 1-332): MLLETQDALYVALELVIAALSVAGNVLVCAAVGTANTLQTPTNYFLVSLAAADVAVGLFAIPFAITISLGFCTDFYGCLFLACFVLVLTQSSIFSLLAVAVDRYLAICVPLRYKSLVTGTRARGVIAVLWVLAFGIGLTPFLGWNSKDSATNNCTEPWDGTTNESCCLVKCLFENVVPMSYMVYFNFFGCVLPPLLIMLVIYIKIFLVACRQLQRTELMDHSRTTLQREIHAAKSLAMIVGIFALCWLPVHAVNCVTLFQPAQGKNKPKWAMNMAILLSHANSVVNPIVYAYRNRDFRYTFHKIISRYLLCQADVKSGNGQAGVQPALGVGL
Assay: Radioligand binding competition, [3H]DPCPX, membranes from HEK-293-A2B cells
Conditions: displacement of specific [3H]DPCPX binding in human HEK-293 cells, n = 3; read-out: Ki hA2B
pKi: −log10 of the molar value.
Quick list: pKi per entry.
READOUT LABEL: pKi

CC1=C(C(=O)OC(C)C)C(c2ccco2)n2c(nc3cc(F)c(F)cc32)N1 (centres unmarked) [14b]    7.92
CCOC(=O)C1=C(C)Nc2nc3ccc(Cl)cc3n2C1c1ccoc1 (centres unmarked) [15k]    7.33
CC1=C(C(=O)OC(C)C)C(c2ccco2)n2c(nc3ccccc32)N1 (centres unmarked) [II, reference compound]    8.46
CCOC(=O)C1=C(C)Nc2nc3ccc(F)cc3n2C1c1cocn1 (centres unmarked) [17a]    7.35
CC1=C(C(=O)OC(C)C)C(c2ccoc2)n2c(nc3ccc(F)cc32)N1 (centres unmarked) [15d]    6.87
CCOC(=O)C1=C(C)Nc2nc3cc(F)c(F)cc3n2C1c1ccco1 (centres unmarked) [14a]    7.36
CC1=C(C(=O)OC(C)C)C(c2cocn2)n2c(nc3cc(Cl)ccc32)N1 (centres unmarked) [18d]    8.19
CCOC(=O)C1=C(C)Nc2nc3cc(Cl)ccc3n2C1c1cocn1 (centres unmarked) [18c]    8.07
CCOC(=O)C1=C(C)Nc2nc3cc(Br)ccc3n2C1c1ccoc1 (centres unmarked) [16s]    8.48
CC1=C(C(=O)OC(C)C)C(c2ccco2)n2c(nc3ccc(F)cc32)N1 (centres unmarked) [15b]    7.91
CC1=C(C(=O)OC(C)C)C(c2ccoc2)n2c(nc3cc(F)c(F)cc32)N1 (centres unmarked) [14d]    7.28
CCOC(=O)C1=C(C)Nc2nc3cc(Br)ccc3n2C1c1ccco1 (centres unmarked) [16q]    7.57
CCOC(=O)C1=C(C)Nc2nc3cc(Cl)c(Cl)cc3n2C1c1ccoc1 (centres unmarked) [14k]    7.26
CC1=C(C(=O)OC(C)C)C(c2ccco2)n2c(nc3cc(F)ccc32)N1 (centres unmarked) [16b]    8.52
CC1=C(C(=O)OC(C)C)C(c2ccsc2)n2c(nc3cc(Cl)ccc32)N1 (centres unmarked) [16p]    6.78
CC1=C(C(=O)OC(C)C)C(c2ccoc2)n2c(nc3cc(F)ccc32)N1 (centres unmarked) [16d]    8.07
CCOC(=O)C1=C(C)Nc2nc3cc(Br)ccc3n2C1c1ccsc1 (centres unmarked) [16w]    6.27
CC1=C(C(=O)OC(C)C)C(c2cccs2)n2c(nc3cc(F)ccc32)N1 (centres unmarked) [16f]    6.18
CC1=C(C(=O)OC(C)C)C(c2ccsc2)n2c(nc3cc(Br)ccc32)N1 (centres unmarked) [16x]    7.21
CCOC(=O)C1=C(C)Nc2nc3cc(Cl)ccc3n2C1c1ccoc1 (centres unmarked) [16k]    8.14
